System: T. cruzi (Y strain) trypomastigotes
Test: Antitrypomastigote assay (resazurin viability)
Assay type: cell-based
Details: Trypanosoma cruzi, LLC-MK2-derived trypomastigotes, 24 h incubation, up to 100 μM, read-out: IC50 (μM) ± SD trypomastigote
experimentalEndpoint: log10(IC50) (log10 of the value in µM)

{"compound": "C=CCc1ccc(Oc2cc(CC=C)cc(OC)c2O)cc1 [Compound 15, 3-methylobovatol]", "log10(IC50)": 0.66}
{"compound": "C=CCc1ccc(O)c(Oc2ccc(CC=C)cc2OC)c1 [Compound 23]", "log10(IC50)": 0.40}
{"compound": "C=CCc1cc(OC)c(OC)c(Oc2ccccc2OC)c1 [Compound 16]", "log10(IC50)": 1.31}
{"compound": "O=C(Cn1ccnc1[N+](=O)[O-])NCc1ccccc1 [benznidazole, reference compound]", "log10(IC50)": 1.25}
{"compound": "C=CCc1cc(OC)c(O)c(Oc2ccc(CCC)cc2OC)c1 [Compound 13]", "log10(IC50)": 0.88}
{"compound": "C=CCc1cc(OC)c(OC)c(Oc2ccc(CCC)cc2OC)c1 [Compound 11]", "log10(IC50)": 1.34}
{"compound": "C=CCc1ccc(Oc2cc(CCC)cc(OC)c2O)c(OC)c1 [Compound 19]", "log10(IC50)": 0.66}
{"compound": "C=CCc1ccc(Oc2cccc(OC)c2OC)c(OC)c1 [Compound 20]", "log10(IC50)": 1.80}
{"compound": "C=CCc1ccc(Oc2cc(CC=C)cc(OC)c2OCOC)c(OC)c1 [Compound 5]", "log10(IC50)": 0.81}
